Target: T1, Macaca fascicularis PDGFRb.mmh (Macaca fascicularis)
T1 construct: Soluble monomeric construct; also called mfPDGFRb.mmh
T1 chain: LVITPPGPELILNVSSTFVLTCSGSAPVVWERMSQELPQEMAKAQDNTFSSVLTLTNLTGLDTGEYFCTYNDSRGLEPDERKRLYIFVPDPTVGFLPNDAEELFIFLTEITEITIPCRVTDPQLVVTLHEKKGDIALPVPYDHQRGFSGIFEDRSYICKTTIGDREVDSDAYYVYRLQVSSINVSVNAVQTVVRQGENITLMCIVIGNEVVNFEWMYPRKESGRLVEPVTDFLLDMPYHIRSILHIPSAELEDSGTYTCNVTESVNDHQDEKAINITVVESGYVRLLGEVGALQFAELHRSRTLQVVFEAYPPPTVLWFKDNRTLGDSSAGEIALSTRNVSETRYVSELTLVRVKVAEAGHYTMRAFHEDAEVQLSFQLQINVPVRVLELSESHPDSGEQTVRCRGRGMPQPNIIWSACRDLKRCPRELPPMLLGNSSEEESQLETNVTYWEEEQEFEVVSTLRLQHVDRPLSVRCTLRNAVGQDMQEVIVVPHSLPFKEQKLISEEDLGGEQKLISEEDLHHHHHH
Test: SPR, mAb captured, 25 C
PROPERTY_NAME: t1/2 (min)
Output spec: scalar in min, unitless text.

Take a look at these entries with their results.
H4H3104S (antibody, human IgG4, V domains shown, human IgG4 Fc (H4H prefix)) VH: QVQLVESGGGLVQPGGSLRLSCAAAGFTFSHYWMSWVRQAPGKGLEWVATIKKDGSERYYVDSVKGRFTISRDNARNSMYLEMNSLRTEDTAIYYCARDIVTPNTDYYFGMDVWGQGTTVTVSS VL: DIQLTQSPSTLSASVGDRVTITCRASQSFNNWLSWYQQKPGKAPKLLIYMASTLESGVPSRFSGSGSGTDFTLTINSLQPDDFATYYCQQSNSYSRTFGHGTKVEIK
16
H4H3103S (antibody, human IgG4, V domains shown, human IgG4 Fc (H4H prefix)) VH: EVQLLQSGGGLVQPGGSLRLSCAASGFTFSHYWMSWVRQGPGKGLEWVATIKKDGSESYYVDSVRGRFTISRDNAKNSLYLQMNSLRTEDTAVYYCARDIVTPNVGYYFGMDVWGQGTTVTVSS VL: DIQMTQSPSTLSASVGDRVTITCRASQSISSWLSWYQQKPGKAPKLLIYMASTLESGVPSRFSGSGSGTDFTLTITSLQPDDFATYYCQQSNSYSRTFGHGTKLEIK
10

Please find the next binder below.
## Input Name the recorded t1/2 of the item H4H3098S (antibody, human IgG4, V domains shown, human IgG4 Fc (H4H prefix)) VH: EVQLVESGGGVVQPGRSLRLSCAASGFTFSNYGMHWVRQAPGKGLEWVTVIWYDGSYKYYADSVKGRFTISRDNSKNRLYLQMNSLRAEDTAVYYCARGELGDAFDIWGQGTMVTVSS VL: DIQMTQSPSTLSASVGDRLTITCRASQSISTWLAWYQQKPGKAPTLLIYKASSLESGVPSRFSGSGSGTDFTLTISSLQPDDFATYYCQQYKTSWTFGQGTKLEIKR in your answer.
## Output 1.2

The measurements presented in this section are drawn from patent US20170210813A1.
